FYI, the data here is from the RNAGym collection of RNA variant scans (doi:10.1073/pnas.2313332121).

B1: TPR t1 (parent)
chain: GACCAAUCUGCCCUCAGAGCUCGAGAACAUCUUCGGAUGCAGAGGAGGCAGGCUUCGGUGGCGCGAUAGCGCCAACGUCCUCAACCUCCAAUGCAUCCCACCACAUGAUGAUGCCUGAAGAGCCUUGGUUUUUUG

# Variants of: B1
# test.method.notes: polymerase ribozyme fitness, log enrichment relative to wild type (log ratio); higher = more active; in vitro selection for triplet polymerase activity
Decide by polymerase ribozyme fitness (log ratio): equal to or exceeding -4 means Met, less means Not met.

variant.label: C20G C72A U87C G113A U130G
answer.label: Met

Is polymerase ribozyme fitness (log ratio) at least -4? Consider U130A U133A
Met

What about A111G G122U U129C ?
Not met

What about A24G G128U ?
Not met

What about U33C U132A ?
Not met

What about C13U A41G G60U ?
Met

What about C31G G36A G52A C56U C115G ?
Not met

What about U38A C49U G110U ?
Not met

What about G19U C86G ?
Met
